- System: Pseudomonas corrugata
- Condition label: Table 4, incubation period 2d; LB-medium, 27°C
Ends that are not written are not given here.
Readout kind: MIC (µg/mL)
Give bare numbers, in µg/mL.

Worked cases, answers included:
LRKAKKIAKKLF-NH2 [SP10-11]: 0.5
RKKRKKLIKRLI-NH2 [SP1-19]: 0.5
KRRLIFRILKLFFRFLVKKR-NH2 [SP13-4]: 5.0
LRFARRALRRLF-NH2 [SP10-9]: 0.5
KRRLALFRAFRLALKSVLKK-NH2 [SP13-10]: 0.25

Hi! Can you tell me MIC for each of these substances?
1. RKKKLKFFKRLF-NH2 [SP1-11]
2. KRRLILRILRLAIRALVKKR-NH2 [SP13-2]
3. KRRKLIKILKLIAKLIRKKR-NH2 [SP13-7]
4. KRKKLLKRLI-NH2 [SP1-16]
5. LRFIKKILKKLI-NH2 [SP10-4]
6. KRRLFLFRLFRLFLRLFLKK-NH2 [SP13-12]
7. RKKKLKIIKRLI-NH2 [SP1-7]
8. LRILRRLLRRLF-NH2 [SP10-7]

1: 0.25; 2: 5.0; 3: 0.5; 4: 0.5; 5: 2.5; 6: 10; 7: 0.5; 8: 2.5

Take each entry in turn and give its MIC.
1. RKKRLRVVRRLV-NH2 [SP1-5]
2. RKKKIKIIKRLI-NH2 [SP1-8]
3. LRKLKKILKKLF-NH2 [SP10-10]
4. LRIIKKILKKLI-NH2 [SP10-5]
5. KKKKIIKRLI-NH2 [SP1-17]
6. KRRKLAFRLFRLFLKLVLKK-NH2 [SP13-14]

1. 5.0
2. 2.5
3. 0.25
4. 0.5
5. 5.0
6. 2.5

I would be grateful if you could provide MIC for each of the following entries.
1. RKKKIKIIKKII-NH2 [SP1-9]
2. RKKKAKIIKKII-NH2 [SP1-10]
3. RKKKKKIIKKLI-NH2 [SP1-21]
4. LRFAKKALKKLF-NH2 [SP10-3]
5. LRIIRRILRRLI-NH2 [SP10-6]

1: 5.0; 2: 10; 3: 2.5; 4: 1.0; 5: 2.5

These data points were gathered from paper PMC3741113.
